Origin of the recorded values: ChEMBL document CHEMBL5143569

Biological target: Tyrosine-protein phosphatase non-receptor type 11 (Homo sapiens) (UniProt Q06124)
Sequence (Q06124 whole entry): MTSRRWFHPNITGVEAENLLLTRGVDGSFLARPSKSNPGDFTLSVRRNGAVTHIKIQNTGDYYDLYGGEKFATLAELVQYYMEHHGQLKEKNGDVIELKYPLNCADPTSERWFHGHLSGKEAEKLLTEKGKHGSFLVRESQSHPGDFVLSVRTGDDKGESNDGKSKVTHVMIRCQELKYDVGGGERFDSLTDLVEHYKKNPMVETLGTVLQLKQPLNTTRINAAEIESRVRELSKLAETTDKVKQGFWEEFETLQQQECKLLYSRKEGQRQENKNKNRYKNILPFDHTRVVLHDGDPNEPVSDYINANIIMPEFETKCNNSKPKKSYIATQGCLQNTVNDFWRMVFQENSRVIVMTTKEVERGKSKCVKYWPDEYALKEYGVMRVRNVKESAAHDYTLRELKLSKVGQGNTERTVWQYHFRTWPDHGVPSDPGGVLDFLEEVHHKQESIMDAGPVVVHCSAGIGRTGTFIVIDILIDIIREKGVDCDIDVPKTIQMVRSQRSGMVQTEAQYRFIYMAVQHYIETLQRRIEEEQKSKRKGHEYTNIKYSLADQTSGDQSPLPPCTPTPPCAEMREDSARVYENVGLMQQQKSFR
Conditions: filed as negative allosteric modulator
Description: Allosteric inhibition of recombinant human SHP2 assessed as change in melting temperature by SYPRO orange dye based thermal shift assay
REPORTED_PROPERTY: ΔTm

[[record]]
molecular_string = "CN1CCN(c2cnc(-c3cccc(Cl)c3Cl)c(N)n2)CC1"
reported_property = "ΔTm"
observed_measurement = "3.2 °C"

[[record]]
molecular_string = "CC1(N)CCN(c2cnc(-c3ccc(C#N)cc3)c(N)n2)CC1"
reported_property = "ΔTm"
observed_measurement = "0.275 °C"

[[record]]
molecular_string = "CC1(N)CCN(c2cnc(Sc3ccccc3F)c(N)n2)CC1"
reported_property = "ΔTm"
observed_measurement = "2.88 °C"

[[record]]
molecular_string = "CN(CCN)c1cnc(-c2cccc(Cl)c2Cl)c(N)n1"
reported_property = "ΔTm"
observed_measurement = "1.06 °C"

[[record]]
molecular_string = "Nc1nc(N2CC[C@H](N)C2)cnc1-c1cccc(Cl)c1Cl"
reported_property = "ΔTm"
observed_measurement = "1.92 °C"

[[record]]
molecular_string = "NCC1CCN(c2cnc(-c3cccc(Cl)c3Cl)c(N)n2)CC1"
reported_property = "ΔTm"
observed_measurement = "3.67 °C"

[[record]]
molecular_string = "NCC1CCN(c2cnc(Sc3cccc(Cl)c3Cl)c(N)n2)CC1"
reported_property = "ΔTm"
observed_measurement = "4.93 °C"

